assay: Retention time of the compound by HPLC method; assay type: physicochemical
Reported Retention_time is given for each of the following compounds.
quantity measured: Retention_time (min)

# smiles input, quantity measured, quantitative readout
data = [
    ("CCNC(=O)Nc1ccc(C(=O)Nc2cccc(C)c2)cn1", "Retention_time", 1.76),
    ("CCNC(=O)Nc1cc(Nc2cccnc2)c(C(=O)Nc2cccnc2)cn1", "Retention_time", 1.38),
    ("CCNC(=O)Nc1cc(-c2ccccc2)c(C(=O)Nc2cccc(Cl)c2)cn1", "Retention_time", 1.88),
    ("CCNC(=O)Nc1ccc(C(=O)NC2CCCCC2)cn1", "Retention_time", 1.67),
    ("CCNC(=O)Nc1cc(N2CCN(C)CC2)c(C(=O)Nc2cccnc2)cn1", "Retention_time", 0.27),
    ("CCNC(=O)Nc1cc(Nc2cccnc2)c(C(=O)Nc2ccccc2)cn1", "Retention_time", 1.46),
    ("CCNC(=O)Nc1cc(Nc2ccccc2)c(C(=O)Nc2ccccc2)cn1", "Retention_time", 1.58),
    ("CCNC(=O)Nc1ccc(C(=O)Nc2cccc(C(N)=O)c2)cn1", "Retention_time", 1.44),
    ("CCNC(=O)Nc1ccc(C(=O)Nc2ccncc2)cn1", "Retention_time", 1.19),
    ("CCNC(=O)Nc1cc(-c2cccnc2)c(C(=O)Nc2cccc(Cl)c2)cn1", "Retention_time", 1.6),
    ("CCNC(=O)Nc1ccc(C(=O)Nc2cccc(Cl)c2)cn1", "Retention_time", 1.84),
]
